- Tested on: various cell lines of different tumor origins
- TEST_DESCRIPTION: Inhibition of cell proliferation, InCell Analyzer assay
- Format: cell-based
- STUDY_CONDITIONS: Homo sapiens, SK-N-AS, neuroblastoma
- Experimental: C. Inhibition of Cell Proliferation For InCell Analyser assay, various cell lines of different tumor origins were grown to 70-80% confluency in appropriate culture media containing 10% fetal bovine serum at 37° C. in a 5% CO2 incubator. […] By counting the number of nuclei, the proliferation index of compound treated groups were calculated as a percentage relative to the DMSO control, which was set to 100%. The IC50 values were calculated using model 205 in ExcelFit.
pIC50: −log10 of the molar value.
REPORTED_METRIC: pIC50

# molecule COc1cc(N2CCC(N3CCCCC3)CC2)ccc1Nc1nccc(-c2c(-c3cccc(C(=O)Nc4c(F)cccc4F)c3)nc3ccccn23)n1 ; its pIC50 = 5.30 to 6.00

* * *

- EXPERIMENTAL_SYSTEM: human IGF-1R (NIH-3T3 cells over expressing human IGF-1R) (Homo sapiens)
- Sequence (P08069 31-1367): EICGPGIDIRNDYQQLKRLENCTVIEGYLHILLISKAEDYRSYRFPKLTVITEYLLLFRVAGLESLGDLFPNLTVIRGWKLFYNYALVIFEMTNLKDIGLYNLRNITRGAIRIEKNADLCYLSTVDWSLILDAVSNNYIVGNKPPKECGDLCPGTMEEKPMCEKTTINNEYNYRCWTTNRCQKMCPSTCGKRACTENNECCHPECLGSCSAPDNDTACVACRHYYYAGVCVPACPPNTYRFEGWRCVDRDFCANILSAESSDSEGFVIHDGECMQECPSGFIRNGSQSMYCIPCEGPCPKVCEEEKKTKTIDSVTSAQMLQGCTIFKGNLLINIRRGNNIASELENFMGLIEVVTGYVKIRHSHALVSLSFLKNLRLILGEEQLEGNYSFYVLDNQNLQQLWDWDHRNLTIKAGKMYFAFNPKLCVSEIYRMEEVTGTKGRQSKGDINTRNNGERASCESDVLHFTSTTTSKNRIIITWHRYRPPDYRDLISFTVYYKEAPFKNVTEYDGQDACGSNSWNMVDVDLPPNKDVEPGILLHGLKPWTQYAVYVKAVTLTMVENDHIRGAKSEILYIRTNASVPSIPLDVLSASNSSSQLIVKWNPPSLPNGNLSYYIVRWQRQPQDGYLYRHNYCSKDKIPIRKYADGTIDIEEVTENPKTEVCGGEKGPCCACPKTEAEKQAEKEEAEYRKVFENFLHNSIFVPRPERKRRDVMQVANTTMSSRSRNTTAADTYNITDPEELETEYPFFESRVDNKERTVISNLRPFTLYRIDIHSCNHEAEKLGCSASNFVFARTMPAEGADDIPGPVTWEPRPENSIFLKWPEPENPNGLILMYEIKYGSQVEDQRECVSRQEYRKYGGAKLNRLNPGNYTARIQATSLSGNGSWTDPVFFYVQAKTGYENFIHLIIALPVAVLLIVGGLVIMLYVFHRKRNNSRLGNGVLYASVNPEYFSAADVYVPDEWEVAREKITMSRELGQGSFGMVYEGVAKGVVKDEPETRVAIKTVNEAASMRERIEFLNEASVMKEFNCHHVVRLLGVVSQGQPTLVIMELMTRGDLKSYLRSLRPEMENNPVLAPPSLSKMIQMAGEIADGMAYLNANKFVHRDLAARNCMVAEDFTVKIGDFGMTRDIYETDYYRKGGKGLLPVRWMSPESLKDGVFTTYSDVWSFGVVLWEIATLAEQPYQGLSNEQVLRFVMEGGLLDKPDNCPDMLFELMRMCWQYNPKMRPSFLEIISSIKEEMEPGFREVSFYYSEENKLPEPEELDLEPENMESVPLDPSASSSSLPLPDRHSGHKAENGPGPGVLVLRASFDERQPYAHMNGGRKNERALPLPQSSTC
- TEST_DESCRIPTION: IGF-1R cellular autophosphorylation (DELFIA)
- STUDY_CONDITIONS: IGF-1 stimulated
REPORTED_METRIC: IC50

| CHEMICAL_SMILES | IC50 |
| --- | --- |
| CCOc1ccc(-c2nc3ccccn3c2-c2ccnc(Nc3cc(CC)c(N4CCN(CCS(C)(=O)=O)CC4)cc3OC)n2)cc1C(=O)Nc1c(F)cccc1F | < 100 nM |

# compound COc1cc(N2CCC(N3CCN(S(C)(=O)=O)CC3)CC2)c(C)cc1Nc1nccc(-c2c(-c3cccc(C(=O)Nc4c(F)cccc4F)c3)nc3ccccn23)n1 ; its IC50 = < 100 nM

# compound COc1cc(N2CCC(N3CCN4CCOC[C@@H]4C3)CC2)ccc1Nc1nccc(-c2c(-c3cccc(C(=O)Nc4c(F)cccc4F)c3)nc3ccccn23)n1 ; its IC50 = < 100 nM

* * *

- System: various cell lines of different tumor origins
- TEST_DESCRIPTION: Inhibition of cell proliferation, InCell Analyzer assay
- Assay type: cell-based
- STUDY_CONDITIONS: U266B1, Myeloma
REPORTED_METRIC: IC50

# molecule COc1cc(N2CCC(N3CCCCC3)CC2)ccc1Nc1nccc(-c2c(-c3cccc(C(=O)Nc4c(F)cccc4F)c3)nc3ccccn23)n1 ; its IC50 = 1000 to 5000 nM

* * *

- Test system: various cell lines of different tumor origins
- TEST_DESCRIPTION: Inhibition of cell proliferation, InCell Analyzer assay
- Format: cell-based
- STUDY_CONDITIONS: Homo sapiens, GDM-1, GDM-1, AML
pIC50: −log10 of the molar value.
REPORTED_METRIC: pIC50

# compound COc1cc(N2CCC(N3CCCCC3)CC2)ccc1Nc1nccc(-c2c(-c3cccc(C(=O)Nc4c(F)cccc4F)c3)nc3ccccn23)n1 [Example 22] ; its pIC50 = > 6.00

* * *

- EXPERIMENTAL_SYSTEM: IR (NIH-3T3 cells over expressing human IGF-1R or IR) (Homo sapiens, UniProt P06213)
- Sequence (P06213 28-1382): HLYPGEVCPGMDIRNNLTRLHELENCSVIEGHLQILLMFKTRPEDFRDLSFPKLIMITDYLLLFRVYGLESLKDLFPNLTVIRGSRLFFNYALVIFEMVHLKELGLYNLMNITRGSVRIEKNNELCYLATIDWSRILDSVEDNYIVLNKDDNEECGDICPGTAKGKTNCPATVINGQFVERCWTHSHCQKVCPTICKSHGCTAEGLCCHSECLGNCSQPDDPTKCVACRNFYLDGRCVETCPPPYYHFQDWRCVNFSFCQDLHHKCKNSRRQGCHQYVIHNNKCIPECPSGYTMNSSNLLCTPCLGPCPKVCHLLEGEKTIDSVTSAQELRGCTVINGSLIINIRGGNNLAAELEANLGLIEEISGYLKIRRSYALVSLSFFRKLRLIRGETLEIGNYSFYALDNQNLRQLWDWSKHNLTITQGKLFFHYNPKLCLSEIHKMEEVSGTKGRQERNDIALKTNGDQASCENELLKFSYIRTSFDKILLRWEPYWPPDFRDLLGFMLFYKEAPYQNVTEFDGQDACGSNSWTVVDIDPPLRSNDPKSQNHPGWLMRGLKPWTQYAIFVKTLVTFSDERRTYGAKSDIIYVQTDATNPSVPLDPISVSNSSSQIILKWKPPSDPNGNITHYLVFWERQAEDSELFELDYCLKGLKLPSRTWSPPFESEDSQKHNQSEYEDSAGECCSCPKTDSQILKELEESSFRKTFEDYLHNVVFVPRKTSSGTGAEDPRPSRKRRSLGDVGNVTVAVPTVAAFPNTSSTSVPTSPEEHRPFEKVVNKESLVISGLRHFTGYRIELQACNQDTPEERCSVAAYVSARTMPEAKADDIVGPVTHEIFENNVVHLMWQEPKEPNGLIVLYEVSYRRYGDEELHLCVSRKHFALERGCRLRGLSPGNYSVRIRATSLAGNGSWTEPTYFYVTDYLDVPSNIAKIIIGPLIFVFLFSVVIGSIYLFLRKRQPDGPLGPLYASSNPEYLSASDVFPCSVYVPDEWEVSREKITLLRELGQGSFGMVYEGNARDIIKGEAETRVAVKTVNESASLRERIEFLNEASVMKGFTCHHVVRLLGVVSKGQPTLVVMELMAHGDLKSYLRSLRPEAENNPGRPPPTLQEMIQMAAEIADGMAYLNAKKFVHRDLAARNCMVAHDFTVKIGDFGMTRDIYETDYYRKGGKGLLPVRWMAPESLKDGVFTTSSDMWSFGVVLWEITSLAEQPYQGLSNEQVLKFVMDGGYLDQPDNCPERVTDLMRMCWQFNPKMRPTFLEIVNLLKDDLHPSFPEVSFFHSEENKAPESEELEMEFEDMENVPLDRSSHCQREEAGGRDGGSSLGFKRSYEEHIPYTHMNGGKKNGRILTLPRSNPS
- TEST_DESCRIPTION: IR cellular autophosphorylation (DELFIA)
- STUDY_CONDITIONS: NIH-3T3 cells over expressing IR, insulin stimulated
- Description: D. IGF-1R and IR Cellular Autophosphorylation (DELFIA) NIH-3T3 cells over expressing human IGF-1R or IR were plated in 96-well plates (10,000 cells/well) in culture media containing 10% fetal bovine serum and incubated at 37° C. in a 5% CO2 incubator. […] The fluorescence signal for cells treated with compounds was expressed as percent relative to 100% stimulation (IGF-1 or insulin stimulated signal). […]
The following compounds are listed with their measured IC50 values.

| COMPOUND | RESULT |
| --- | --- |
| COc1cc(N2CCC(N3CCN(CCF)CC3)CC2)ccc1Nc1nccc(-c2c(-c3ccc(OC)c(C(=O)Nc4c(F)cccc4F)c3)nc3ccccn23)n1 [Example 61] | < 100 nM |

# compound CCOc1cc(N2CCC(N3CCCCC3)CC2)ccc1Nc1nccc(-c2c(-c3cccc(C(=O)Nc4c(F)cccc4F)c3)nc3ccccn23)n1 [Example 34] ; its IC50 = 100 to 500 nM
